Data origin: patent EP4786492A1

- STUDY_TARGET: mouse DLL3 on CHO-K1-mDLL3 cells (mouse) (UniProt O88516)
- Sequence (O88516 other isoform, or with tags, fused parts or gaps limits assumed): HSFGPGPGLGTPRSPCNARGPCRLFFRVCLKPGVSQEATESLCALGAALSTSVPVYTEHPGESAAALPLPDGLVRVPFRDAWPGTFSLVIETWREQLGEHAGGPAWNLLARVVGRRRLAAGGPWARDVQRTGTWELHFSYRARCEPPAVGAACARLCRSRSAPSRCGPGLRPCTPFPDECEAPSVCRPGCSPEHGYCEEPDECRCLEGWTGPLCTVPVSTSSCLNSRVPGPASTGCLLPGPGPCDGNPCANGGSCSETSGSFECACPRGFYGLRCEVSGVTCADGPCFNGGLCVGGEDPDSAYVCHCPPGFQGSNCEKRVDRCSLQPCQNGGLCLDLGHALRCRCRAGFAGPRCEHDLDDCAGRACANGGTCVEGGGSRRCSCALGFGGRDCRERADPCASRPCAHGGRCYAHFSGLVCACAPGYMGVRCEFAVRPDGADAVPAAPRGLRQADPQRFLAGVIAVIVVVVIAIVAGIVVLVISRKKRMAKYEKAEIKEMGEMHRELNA
- TEST_METHOD_NOTES: FACS, CHO-K1-mDLL3 cells, 4 nM antibody
ASSAY_ENDPOINT: MFI (MFI)
Please respond with the number in MFI and leave the unit unwritten.

Please indicate MFI recorded for Hab014VL2VH1-hFc (scFv, part only; not given: scFv linker and human IgG1 Fc, V domains shown, not shown: another chain or arm of the molecule; a dimerising Fc or GST; small tags and cut ends) VL: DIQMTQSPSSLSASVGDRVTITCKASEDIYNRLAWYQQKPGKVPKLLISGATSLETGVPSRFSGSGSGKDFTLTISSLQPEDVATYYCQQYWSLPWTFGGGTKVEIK VH: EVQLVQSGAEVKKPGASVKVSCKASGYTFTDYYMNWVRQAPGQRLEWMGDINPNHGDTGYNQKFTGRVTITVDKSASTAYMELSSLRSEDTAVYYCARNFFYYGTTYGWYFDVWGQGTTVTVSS
308
